All values here come from patent US20120107324A1.

- SYSTEM_NAME: human α5β1 integrin (human, UniProt P08648 42-1049; P05556 21-798)
- Sequence (P08648 42-1049, chain 1 of 2): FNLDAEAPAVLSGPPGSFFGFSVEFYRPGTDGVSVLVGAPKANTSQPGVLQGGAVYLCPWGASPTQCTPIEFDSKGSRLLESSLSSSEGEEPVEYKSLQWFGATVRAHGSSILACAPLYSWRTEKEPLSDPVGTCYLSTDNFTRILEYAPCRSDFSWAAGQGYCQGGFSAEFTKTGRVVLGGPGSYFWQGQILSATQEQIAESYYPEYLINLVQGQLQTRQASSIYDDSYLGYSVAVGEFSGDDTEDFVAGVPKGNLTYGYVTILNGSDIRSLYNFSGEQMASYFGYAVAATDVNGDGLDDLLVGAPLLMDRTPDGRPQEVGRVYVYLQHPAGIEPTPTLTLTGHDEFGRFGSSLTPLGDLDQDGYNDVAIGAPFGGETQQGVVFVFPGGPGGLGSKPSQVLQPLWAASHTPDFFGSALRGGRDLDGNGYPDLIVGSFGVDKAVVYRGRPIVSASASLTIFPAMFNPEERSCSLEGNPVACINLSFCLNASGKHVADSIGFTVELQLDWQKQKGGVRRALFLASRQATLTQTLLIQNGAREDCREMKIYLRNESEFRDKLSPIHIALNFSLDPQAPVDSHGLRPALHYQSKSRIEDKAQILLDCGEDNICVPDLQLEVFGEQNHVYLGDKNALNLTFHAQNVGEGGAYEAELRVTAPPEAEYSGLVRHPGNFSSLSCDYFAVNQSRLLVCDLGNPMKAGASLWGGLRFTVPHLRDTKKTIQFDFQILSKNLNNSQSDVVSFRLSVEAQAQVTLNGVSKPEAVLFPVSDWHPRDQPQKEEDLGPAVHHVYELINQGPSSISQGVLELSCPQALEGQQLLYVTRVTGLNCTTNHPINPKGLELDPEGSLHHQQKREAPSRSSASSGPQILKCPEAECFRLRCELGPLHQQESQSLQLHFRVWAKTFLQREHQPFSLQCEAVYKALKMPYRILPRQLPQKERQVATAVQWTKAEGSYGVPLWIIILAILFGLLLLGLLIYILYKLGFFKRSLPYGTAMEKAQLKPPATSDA
- Sequence (P05556 21-798, chain 2 of 2): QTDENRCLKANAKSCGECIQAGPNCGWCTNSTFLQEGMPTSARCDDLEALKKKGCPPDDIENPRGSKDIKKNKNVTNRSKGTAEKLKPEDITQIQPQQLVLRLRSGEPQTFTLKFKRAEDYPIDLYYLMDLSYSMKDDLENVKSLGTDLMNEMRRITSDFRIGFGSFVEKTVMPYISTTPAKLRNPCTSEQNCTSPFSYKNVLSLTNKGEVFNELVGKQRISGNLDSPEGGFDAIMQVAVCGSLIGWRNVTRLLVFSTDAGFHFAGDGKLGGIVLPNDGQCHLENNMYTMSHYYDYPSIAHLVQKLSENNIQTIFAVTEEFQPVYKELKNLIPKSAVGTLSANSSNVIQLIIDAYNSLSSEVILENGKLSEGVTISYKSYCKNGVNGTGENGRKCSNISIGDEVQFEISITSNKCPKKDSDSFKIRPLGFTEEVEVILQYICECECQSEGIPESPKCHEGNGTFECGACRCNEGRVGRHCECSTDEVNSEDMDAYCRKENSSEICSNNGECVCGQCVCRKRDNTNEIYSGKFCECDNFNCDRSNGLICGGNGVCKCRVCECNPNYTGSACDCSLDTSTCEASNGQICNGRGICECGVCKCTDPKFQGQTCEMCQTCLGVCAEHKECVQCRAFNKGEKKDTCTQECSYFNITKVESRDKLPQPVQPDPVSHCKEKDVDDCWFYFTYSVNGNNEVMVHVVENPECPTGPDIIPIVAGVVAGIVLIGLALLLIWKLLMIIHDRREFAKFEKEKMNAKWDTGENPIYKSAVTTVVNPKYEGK
- EXPERIMENTAL_PROTOCOL: cell-based or functional assay
OBSERVED_PROPERTY: % Inhibition of cell adhesion, n = 1 (K562 on full length FN, supernatant 1 in 4)
Give your result as the value with the unit written after it.

Sample 4G3.3D11 (antibody, IgG4, V domains shown, Isotype IgG4/k) VH: QVQLVESGGGVVQPGRSLRLSCAASGFIFSSYGMHWVRQAPGKGLEWVAVIWYDGTNKYYADSVKGRFTISRDNSKNTLYLQMNSLRAEDTAVYYCARDGAARRGDYYYYYGMDVWGQGTTVTVSS VL: DIVMTQSPLSLPVTPGEPASISCRSSQSLLHGTGYSSLDWYLQKPGQSPQLLIYLGSNRASGVPDRFSGSGSGTDFTLKISRVEAEDVGVYFCMQALQTPFTFGPGTKVDIK ; % Inhibition of cell adhesion, n = 1 (K562 on full length FN, supernatant 1 in 4) observed: 96%
